# TEST_TARGET: human factor Xa (Homo sapiens, UniProt P00742)
# Construct: purchased Enzyme Research Laboratories
# Sequence (P00742 235-488 limits assumed): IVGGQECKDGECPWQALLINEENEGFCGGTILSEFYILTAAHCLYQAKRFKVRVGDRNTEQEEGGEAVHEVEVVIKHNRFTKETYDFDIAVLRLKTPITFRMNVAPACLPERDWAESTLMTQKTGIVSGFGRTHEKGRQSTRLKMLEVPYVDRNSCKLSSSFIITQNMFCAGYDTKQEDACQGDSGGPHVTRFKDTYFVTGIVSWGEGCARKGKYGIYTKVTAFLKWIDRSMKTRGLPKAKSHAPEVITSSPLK
# Sequence (P00742 41-179 partner limits assumed): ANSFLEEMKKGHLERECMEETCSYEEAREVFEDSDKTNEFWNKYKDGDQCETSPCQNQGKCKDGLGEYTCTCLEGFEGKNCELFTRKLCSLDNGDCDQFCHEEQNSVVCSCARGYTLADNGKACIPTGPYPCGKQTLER
# ASSAY_PROTOCOL: Factor Xa chromogenic peptide substrate (S-2222) assay
# Assay type: biochemical
# CONDITION_PARAMETERS: apparent Ki from IC50 by Cheng-Prusoff; enzyme 3 nM, substrate S-2222, pH 7.8, room temperature
# Experimental: Factor Xa activity was measured spectrophotometrically in microtiter plates in a final volume of 150 μl using the following conditions: Inhibition of human factor Xa (Enzyme Research Laboratories) was tested at an enzyme concentration of 3 nM using the chromogenic substrate S-2222 (Chromogenix AB, Mölndal, Sweden) at 200 nM. […] The velocity of the reaction was determined by the autoreader from the slope of the linear regression fit to 7 time points (1 minute). […]

COMPOUND	Ki
O=C(Nc1ccc(-n2ccccc2=O)cc1F)C1Cc2cccnc2N1C(=O)Nc1ccc(Cl)cc1 (stereo not drawn)	51 nM
O=C(Nc1ccc(-n2ccccc2=O)cc1F)C1Cc2cccnc2CN1C(=O)Nc1ccc(Cl)cc1 (stereo not drawn)	12 nM
Cn1ncc2c1CN(C(=O)Nc1ccc(Cl)cn1)[C@H]2C(=O)Nc1ccc(-n2ccccc2=O)cc1F	19 nM
